src = patent US20230322747A1

pIC50: −log10 of the molar value.
// pIC50 collected for Human HDAC8 (Homo sapiens (Human), UniProt Q9BY41)

Some solved cases for reference:
Human HDAC8 (Homo sapiens (Human), UniProt Q9BY41) / pIC50 / Fc1ccc(OCc2ncc(-c3nnc(C(F)F)o3)cn2)cc1 [Compound 1] : value?
< 4.00

Form: Entry = FC(F)c1nnc(-c2ccc(COc3cncnc3)nc2)o1 [Compound 102] | System = Human HDAC8 (Homo sapiens (Human), UniProt Q9BY41) | pIC50 = ____
< 4.00

// lookup pIC50 | system=Human HDAC8 (Homo sapiens (Human), UniProt Q9BY41) | key= N#Cc1c(F)cccc1OCc1ccc(-c2nnc(C(F)F)o2)cn1 [Compound 29]
4.00 to 5.00

GET /values?readout=pIC50&system=Human HDAC8 (Homo sapiens (Human), UniProt Q9BY41)&item= CC(C)n1ccc(OCc2ccc(-c3nnc(C(F)F)o3)cn2)n1 [Compound 79]
< 4.00

Read the next record carefully.
Provide value of pIC50 for this record tested with Human HDAC8 (Homo sapiens (Human), UniProt Q9BY41): Cn1cc(OCc2ccc(-c3nnc(C(F)F)o3)cn2)cn1 [Compound 65]
Sequence (Q9BY41 whole entry): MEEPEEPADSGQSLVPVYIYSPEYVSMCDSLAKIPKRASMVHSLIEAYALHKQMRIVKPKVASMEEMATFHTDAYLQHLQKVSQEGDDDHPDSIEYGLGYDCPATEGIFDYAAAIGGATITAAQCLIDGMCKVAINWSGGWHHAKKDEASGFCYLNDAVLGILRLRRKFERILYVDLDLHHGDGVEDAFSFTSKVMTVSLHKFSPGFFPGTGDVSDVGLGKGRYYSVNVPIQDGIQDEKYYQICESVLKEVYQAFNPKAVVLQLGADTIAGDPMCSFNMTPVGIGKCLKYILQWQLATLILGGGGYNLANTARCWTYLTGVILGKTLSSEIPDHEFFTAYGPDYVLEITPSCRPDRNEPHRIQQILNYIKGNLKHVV
< 4.00
